Each record here notes measured inhibition of growth at 10 µg/mL.
Test system: A549
assay.details: Cytotoxicity against human A549 cells assessed as growth inhibition at 10 ug/ml after 72 hrs by MTT assay
Assay type: functional
assay.setup: A549, 72 h, read-out: GI
Kindly provide the numeric value in % only, without the unit symbol.

# count of solved cases: 3
compound: CC(=O)Oc1ccc(COP(=O)(OCc2ccc(OC(C)=O)cc2)O[C@H]2[C@@H]3OC(C)(C)O[C@H]3[C@H](OP(=O)(OCc3ccc(OC(C)=O)cc3)OCc3ccc(OC(C)=O)cc3)[C@H]3OC(C)(C)O[C@H]32)cc1
result.units: %
inhibition of growth at 10 µg/mL: 90.1

compound: C#CCO[C@@H]1[C@@H](OCc2ccccc2)[C@H](OP(=O)(OCc2ccc(OC(C)=O)cc2)OCc2ccc(OC(C)=O)cc2)[C@H](OP(=O)(OCc2ccc(OC(C)=O)cc2)OCc2ccc(OC(C)=O)cc2)[C@H](OP(=O)(OCc2ccc(OC(C)=O)cc2)OCc2ccc(OC(C)=O)cc2)[C@H]1OCc1ccccc1
result.units: %
inhibition of growth at 10 µg/mL: 2.5

compound: CC(=O)Oc1ccc(COP(=O)(OCc2ccc(OC(C)=O)cc2)OC2C(OCc3ccccc3)C3OCOC(C3OCc3ccccc3)C2OCc2ccccc2)cc1 (centres undefined)
result.units: %
inhibition of growth at 10 µg/mL: 75.4

Lab note: next compound to report on.
API: value(readout=inhibition of growth at 10 µg/mL, system=A549) for record CC(=O)Oc1ccc(COP(=O)(OCc2ccc(OC(C)=O)cc2)O[C@@H]2[C@@H](OP(=O)(OCc3ccc(OC(C)=O)cc3)OCc3ccc(OC(C)=O)cc3)[C@H](OCc3ccccc3)[C@@H](OCc3ccccc3)[C@H](OCc3ccccc3)[C@@H]2OP(=O)(OCc2ccc(OC(C)=O)cc2)OCc2ccc(OC(C)=O)cc2)cc1 34.9

* * *

Test system: A549
assay.details: Cytotoxicity against human A549 cells assessed as growth inhibition at 10 ug/ml after 72 hrs by MTT assay
Format: functional
assay.setup: A549, 72 h, read-out: GI
Each record here notes measured inhibition of growth at 10 µg/mL.
Give your result as the value with the unit written after it.

compound: CC(=O)Oc1ccc(COP(=O)(OCc2ccc(OC(C)=O)cc2)OC2C3OC4OC(C3OCc3ccccc3)C(OCc3ccccc3)C2O4)cc1 (centres undefined)
inhibition of growth at 10 µg/mL: 88.9%
--
compound: CC(=O)Oc1ccc(COP(=O)(OCc2ccc(OC(C)=O)cc2)OC2C3OC4OC(C3OCc3ccccc3)C(O[Si](C)(C)C(C)(C)C)C2O4)cc1 (centres undefined)
inhibition of growth at 10 µg/mL: 100%
--
compound: CC(=O)Oc1ccc(COP(=O)(OCc2ccc(OC(C)=O)cc2)OC2C3OCOC2C(OCc2ccccc2)C(OP(=O)(OCc2ccc(OC(C)=O)cc2)OCc2ccc(OC(C)=O)cc2)C3OCc2ccccc2)cc1 (centres undefined)
inhibition of growth at 10 µg/mL: 43.7%
--
compound: CC(=O)Oc1ccc(COP(=O)(OCc2ccc(OC(C)=O)cc2)OC2C3OCOC(C3OCc3ccccc3)C(OCc3ccccc3)C2OP(=O)(OCc2ccc(OC(C)=O)cc2)OCc2ccc(OC(C)=O)cc2)cc1 (centres undefined)
inhibition of growth at 10 µg/mL: 92.1%
--
compound: CC(=O)Oc1ccc(COP(=O)(OCc2ccc(OC(C)=O)cc2)OC2C3OC4OC(C3OCc3ccccc3)C(OP(=O)(OCc3ccc(OC(C)=O)cc3)OCc3ccc(OC(C)=O)cc3)C2O4)cc1 (centres undefined)
inhibition of growth at 10 µg/mL: 98.5%

Param item = CC(=O)Oc1ccc(COP(=O)(OCc2ccc(OC(C)=O)cc2)O[C@@H]2[C@@H](OCc3ccccc3)[C@H](OCc3ccccc3)[C@@H](OCc3ccccc3)[C@H](OCc3ccccc3)[C@@H]2OP(=O)(OCc2ccc(OC(C)=O)cc2)OCc2ccc(OC(C)=O)cc2)cc1 ; retrieve measured inhibition of growth at 10 µg/mL. 14.9%

Item: CC(=O)Oc1ccc(COP(=O)(OCc2ccc(OC(C)=O)cc2)OC2C3OC4OC2C(OP(=O)(OCc2ccc(OC(C)=O)cc2)OCc2ccc(OC(C)=O)cc2)C(O4)C3OP(=O)(OCc2ccc(OC(C)=O)cc2)OCc2ccc(OC(C)=O)cc2)cc1 (centres undefined) 85.8%

Item: CC(=O)Oc1ccc(COP(=O)(OCc2ccc(OC(C)=O)cc2)O[C@@H]2[C@H](OCc3ccccc3)[C@H](OCc3ccccc3)[C@@H](OP(=O)(OCc3ccc(OC(C)=O)cc3)OCc3ccc(OC(C)=O)cc3)[C@H](OP(=O)(OCc3ccc(OC(C)=O)cc3)OCc3ccc(OC(C)=O)cc3)[C@H]2OCc2ccccc2)cc1 6.4%

Item: CC(=O)Oc1ccc(COP(=O)(OCc2ccc(OC(C)=O)cc2)O[C@@H]2[C@@H](OCc3ccccc3)[C@@H](OCc3ccccc3)[C@@H](OP(=O)(OCc3ccc(OC(C)=O)cc3)OCc3ccc(OC(C)=O)cc3)[C@H](OP(=O)(OCc3ccc(OC(C)=O)cc3)OCc3ccc(OC(C)=O)cc3)[C@H]2OCc2ccccc2)cc1 7.8%

FYI, the data here is from ChEMBL document CHEMBL3407394.
